// values below are pKi; system is human σ1 receptor (Homo sapiens, UniProt Q99720)
Sequence (Q99720 whole entry): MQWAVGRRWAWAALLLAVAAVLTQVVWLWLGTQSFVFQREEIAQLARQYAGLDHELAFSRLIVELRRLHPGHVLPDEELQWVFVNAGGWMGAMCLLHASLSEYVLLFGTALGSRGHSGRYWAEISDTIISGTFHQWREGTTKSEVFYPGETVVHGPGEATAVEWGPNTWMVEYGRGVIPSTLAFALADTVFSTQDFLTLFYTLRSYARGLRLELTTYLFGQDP
pKi: −log10 of the molar value.

CN(Cc1ccccc1)[C@H]1CC[C@@]2(CC1)CN(c1ccccc1)CC1(CC1)O2 :: > 7.00

Batch request: pKi for each of the following compounds.
1. CC(C)CCN(C)[C@H]1CC[C@]2(CC1)CN(c1ccccc1)C(=O)C1(CC1)O2
2. CCN1C[C@]2(CC[C@H](NCc3ccccc3)CC2)OC(C)(C)C1=O
3. CCN1C[C@]2(CC[C@@H](N(C)CCC(C)C)CC2)OC(C)(C)C1=O
4. O=C1N(c2ccccc2)C[C@]2(CC[C@@H](NCCc3ccccc3)CC2)OC12CC2
5. CC(C)CCN(C)[C@H]1CC[C@@]2(CC1)CN(C(=O)c1ccccc1)CC1(CC1)O2
6. CN(Cc1ccccc1)[C@H]1CC[C@@]2(CC1)CN(c1ccccc1)C(=O)C1(CC1)O2
7. CN(CCc1ccccc1)[C@H]1CC[C@]2(CC1)CN(c1ccccc1)CC1(CC1)O2

> 7.00
≤ 6.30
> 7.00
≤ 6.30
> 6.30
> 7.00
> 7.00

----------
biological target: human σ1 receptor (Homo sapiens)
RESULT_TYPE: Ki

Field: example entries. Status: answers known.
CCN1C[C@]2(CC[C@H](N(C)CCc3ccccc3)CC2)OCC1=O :: < 500 nM
CCN1C[C@]2(CC[C@H](N(C)CC(C)C)CC2)OC(C)(C)C1=O :: < 500 nM
CCN1C[C@]2(CC[C@H](N(C)CCc3ccccc3)CC2)OC(C)(C)C1=O :: < 100 nM
CCN1C[C@]2(CC[C@H](N(C)Cc3ccccc3)CC2)OC(C)(C)C1=O :: < 100 nM

Now, please, on to the next compound.
Give its Ki value. Item: CC(C)CCN(C)[C@H]1CC[C@@]2(CC1)CN(c1ccccc1)CC1(CC1)O2 < 100 nM

----------
target: human σ1 receptor (Homo sapiens)
pKi: −log10 of the molar value.
I'd be grateful if you could share measured pKi for these entries.

Look over these answered cases.
CCN1C[C@]2(CC[C@@H](N(C)CCC(C)C)CC2)OC2(CC2)C1=O :: > 6.30
CCN1C[C@]2(CC[C@@H](N(C)CCc3ccccc3)CC2)OC2(CC2)C1=O :: > 7.00
CN(Cc1ccccc1)[C@H]1CC[C@@]2(CC1)CN(C(=O)c1ccccc1)CC1(CC1)O2 :: > 7.00

Can you give me pKi for all of these, one by one?
1. CC(C)CCN(C)[C@H]1CC[C@@]2(CC1)CN(c1ccccc1)C(=O)C1(CC1)O2
2. CCN1C[C@]2(CC[C@H](NC)CC2)OC(C)(C)C1=O
3. CCN1C[C@]2(CC[C@H](NCc3ccccc3)CC2)OC2(CC2)C1=O
4. CCN1C[C@]2(CC[C@@H](NC)CC2)OC2(CC2)C1=O
5. CN[C@H]1CC[C@]2(CC1)CN(c1ccccc1)CC1(CC1)O2

["> 6.30", "≤ 6.30", "≤ 6.30", "≤ 6.30", "≤ 6.30"]

----------
target: human σ1 receptor (Homo sapiens, UniProt Q99720)
pKi: −log10 of the molar value.
Could you please report measured pKi for the items listed next?

Solved cases below.
CCN1CCO[C@]2(CC[C@@H](N(C)CCc3ccccc3)CC2)C1 :: > 7.00
CN[C@H]1CC[C@@]2(CC1)CN(C(=O)c1ccccc1)CC1(CC1)O2 :: ≤ 6.30
CCN1C[C@]2(CC[C@@H](NCc3ccccc3)CC2)OCC1=O :: ≤ 6.30

Batch of 2 compounds: report pKi for each.
1. CCN1C[C@]2(CC[C@@H](NCc3ccccc3)CC2)OC(C)(C)C1=O
2. CC(C)CCN(C)[C@H]1CC[C@]2(CC1)CN(c1ccccc1)CC1(CC1)O2

1. ≤ 6.30
2. > 7.00

Hey, quick one: what's pKi for each of these?
1. CCN1CC2(CC2)O[C@]2(CC[C@H](N(C)Cc3ccccc3)CC2)C1
2. CCN1C[C@]2(CC[C@@H](NC)CC2)OC(C)(C)C1=O
3. O=C1N(c2ccccc2)C[C@]2(CC[C@H](NCCc3ccccc3)CC2)OC12CC2
4. CCN1C[C@]2(CC[C@H](NCCc3ccccc3)CC2)OC2(CC2)C1=O

> 6.30
≤ 6.30
> 6.30
> 6.30

Where do these numbers come from? They come from patent US10183918B2.
